Source listed as patent US12600732B2.

Assay: PK data for BTK CTMs (in vivo plasma concentrations)
Conditions: Rat Sprague-Dawley, 1 mg/kg IV, read-out: Volume of Distribution
Here, each record is paired with measured Vd data.

COMPOUND	UNIT_NAME	Vd
CN1CCN([C@@H]2CCCN(c3cnc(C(N)=O)c(Nc4ccc(C5CCN(C6CN(c7ccc8c(c7)C(=O)N(C7CCC(=O)NC7=O)C8=O)C6)CC5)cc4)n3)C2)C1=O (some centres unmarked)	L/kg	5.9
NC(=O)c1ncc(N2CCCCC2)nc1Nc1ccc(C2CCN(C[C@@H]3CCN(c4ccc5c(c4)C(=O)N(C4CCC(=O)NC4=O)C5=O)C3)CC2)cc1 (some centres unmarked)	L/kg	2.8
CN1CCN([C@H]2CCCN(c3cnc(C(N)=O)c(Nc4ccc(C5CCN(CC6CCN(c7ccc(C(=O)NC8CCC(=O)NC8=O)nc7)CC6)CC5)cc4)n3)C2)C1=O (some centres unmarked)	L/kg	32
CN1CCN([C@@H]2CCCN(c3cnc(C(N)=O)c(Nc4ccc(C5CN(C6CCN(c7ccc8c(c7)C(=O)N(C7CCC(=O)NC7=O)C8=O)CC6)C5)cc4)n3)C2)C1=O (some centres unmarked)	L/kg	4.6
CN1CCN([C@@H]2CCCN(c3cnc(C(N)=O)c(Nc4ccc(C5CCN(CC6CCN(c7ccc(-c8nn(C9CCC(=O)NC9=O)c(=O)n8C)cc7)CC6)CC5)cc4)n3)C2)C1=O (some centres unmarked)	L/kg	3.12
